Tested on: LOC_OS01G21960-cb002
TEST DETAILS: thermal shift delta Tm vs DMSO control; higher = stronger stabilization (binding);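 also: purified Escherichia coli-expressed rice kinase domain construct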
EXPERIMENTAL CONDITIONS: 12.5 µM; protein concentration 2 µM
ENDPOINT: thermal shift delta Tm (°C)
Report the value in °C with no unit label.

So, CN(C)CCOc1ccc(-c2nc(-c3ccncc3)c(-c3ccc4c(c3)CC/C4=N\O)[nH]2)cc1 ? Its thermal shift delta Tm was -0.07

Briefly, thermal shift delta Tm measured for COc1cc2c(cc1OC)[C@@H]1C(=O)c3ccc4c(c3O[C@@H]1CO2)C=CC(C)(C)O4 : 0.41

Short answer for CNC(=O)c1cccc(-c2ccc3c(N4CCOC[C@@H]4C)nc(N4CCOC[C@@H]4C)nc3n2)c1 : thermal shift delta Tm was 0.23

Looking up CCn1c2ccccc2c2cc(Nc3ccnc(NCCCN4CCOCC4)n3)ccc21 , I found its thermal shift delta Tm recorded as 0.58

====

Test system: LOC_OS02G07810-cb001
TEST DETAILS: thermal shift delta Tm vs DMSO control; higher = stronger stabilization (binding)
EXPERIMENTAL CONDITIONS: 12.5 µM; protein concentration 2 µM
ENDPOINT: thermal shift delta Tm (°C)
Numbers only; they are read as °C.

Measured thermal shift delta Tm, Cc1nc2c(-c3cnc(N)nc3)nc(N3CCOCC3)nc2n1C(C)C : 1.23

Reported thermal shift delta Tm of Nc1nccc(Oc2ccc3c(C(=O)Nc4cccc(C(F)(F)F)c4)cccc3c2)n1 : 0.76

Entry NC1(c2ccc(-c3nc4ccn5c(=O)[nH]nc5c4cc3-c3ccccc3)cc2)CCC1 ; thermal shift delta Tm = 0.4

Record summary for C#Cc1cccc(Nc2ncnc3cc(OCCOC)c(OCCOC)cc23)c1 [Erlotinib] : reported thermal shift delta Tm = -0.06

Entry under test: Cc1cc(Nc2cc(N)ncn2)c(=O)n2c1C(=O)NC21CCCCC1 . Its thermal shift delta Tm was -1.2

Reported thermal shift delta Tm ( C[C@H](NC(=O)/C(C#N)=C/c1cccc(Br)n1)c1ccccc1 ) = 0.51

For this compound ( CC1=C(C(=O)Nc2ccc3[nH]ncc3c2)C(c2ccc(F)cc2)NC(=O)N1 (stereo not given) ), measured thermal shift delta Tm is -0.36

What the record says about C=C[C@@](C)(/C=C/c1ccc(O)cc1)CCC=C(C)C [Bakuchiol] : thermal shift delta Tm is -0.84

Notebook: CNC(=O)c1cc(Oc2ccc(NC(=O)Nc3ccc(Cl)c(C(F)(F)F)c3)c(F)c2)ccn1 [Regorafenib (BAY 73-4506)] , thermal shift delta Tm read as 0.73

# compound CN1CCN(c2cccc(Nc3nc4c(-c5ccc(S(C)(=O)=O)cc5)cccn4n3)c2)CC1 ; its thermal shift delta Tm = 0.59

====

Provide the recorded thermal shift delta Tm for the entries that follow.
Tested on: LOC_OS05G28520-cb001
TEST DETAILS: thermal shift delta Tm vs DMSO control; higher = stronger stabilization (binding)
EXPERIMENTAL CONDITIONS: 12.5 µM; protein concentration 2 µM

The value of thermal shift delta Tm measured for the molecule CC(C)(C)Cn1c(N)nc2ccc(-c3[nH]c(C(C)(C)C)nc3-c3ccc(F)cc3)nc21 turned out to be 0.04 °C

So for COc1cc(N2CCN(C)CC2)ccc1Nc1nccc(-c2cn(C)c3cnccc23)n1 , the logged thermal shift delta Tm turned out to be 0.25 °C

GET /value?item= Cc1c(NC(=O)c2ccc(C(C)(C)C)cc2)cccc1-c1cn(C)c(=O)c(Nc2ccc(C(=O)N3CCOCC3)cc2)n1 &field=thermal shift delta Tm returns 0.5 °C

thermal shift delta Tm reading for CCc1nc(-c2cccc(C)c2)c(-c2ccnc(NC(=O)c3ccccc3)c2)s1 : 0.55 °C

thermal shift delta Tm for C[C@@H](Oc1ccc2[nH]nc(/C=C/c3cnn(CCO)c3)c2c1)c1c(Cl)cncc1Cl is 1.22 °C

Just so you know, measured thermal shift delta Tm for O=C1NC(=O)[C@@H](c2cn3c4c(cccc24)CCC3)[C@@H]1c1c[nH]c2ccccc12 [Tivantinib (ARQ 197)] came out at 0.49 °C

Sure, the documented thermal shift delta Tm for CC1(C)OCCn2c1nc1c(N3CCOCC3)nc(-c3cnc(N)nc3)nc12 is 0.5 °C

# thermal shift delta Tm of COc1cc2nccc(Oc3ccc(NC(=O)Nc4cc(C)on4)c(Cl)c3)c2cc1OC = 2.41 °C

Input Cc1ccc(Nc2nccc(N(C)c3ccc4c(C)n(C)nc4c3)n2)cc1S(N)(=O)=O . Output thermal shift delta Tm: 0.62 °C

====

Tested on: LOC_OS07G06570-cb004
TEST DETAILS: thermal shift delta Tm vs DMSO control; higher = stronger stabilization (binding)
EXPERIMENTAL CONDITIONS: 12.5 µM; protein concentration 2 µM
Decide by thermal shift delta Tm: equal to or exceeding 1 °C means condition met, less means condition not met.

Exercise: Entry Cc1cc(C)c(/C=C2\C(=O)Nc3ccccc32)[nH]1 [Semaxanib (SU5416)] : is its thermal shift delta Tm no less than 1 °C?
Key: condition met

Exercise: Tell me whether thermal shift delta Tm is at least 1 °C here: COc1ccc(Cl)c(Nc2nc3ccccc3nc2NS(=O)(=O)c2cccc(NC(=O)C(C)(C)N)c2)c1
Key: condition not met

Exercise: // inclusive: thermal shift delta Tm at least 1 °C? input: Cc1ccc(NC(=O)c2ccc(CN3CCN(C)CC3)cc2)cc1Nc1nccc(-c2cccnc2)n1 [Imatinib (STI571)]
Key: condition met

Exercise: Test whether the molecule O=C(c1ccc(/C=C/c2n[nH]c3ccccc23)cc1)N1CCNCC1 records thermal shift delta Tm of 1 °C or higher.
Key: condition met

Exercise: // inclusive: thermal shift delta Tm at least 1 °C? input: O=c1cc(N2CCOCC2)oc2c1ccc1ccccc12
Key: condition not met

Exercise: Check the entry CC(C)CC(=O)Nc1n[nH]c2c1CN(C(=O)C1CCN(C)CC1)C2(C)C : does thermal shift delta Tm equal or exceed 1 °C?
Key: condition not met

Exercise: Is it the case that Cc1cn(-c2cc(NC(=O)c3ccc(C)c(Nc4nccc(-c5cnccn5)n4)c3)cc(C(F)(F)F)c2)cn1 has thermal shift delta Tm reaching or exceeding 1 °C?
Key: condition met

Exercise: API: above_or_equal(metric=thermal shift delta Tm, cutoff=1 °C) for item OC1CCC(Nc2ncc3nc(Nc4c(F)cc(F)cc4F)n([C@H]4CCOC4)c3n2)CC1 (stereo partly drawn)
Key: condition met

====

Test system: LOC_OS01G67340-cb003
TEST DETAILS: thermal shift delta Tm vs DMSO control; higher = stronger stabilization (binding)
EXPERIMENTAL CONDITIONS: 12.5 µM; protein concentration 2 µM
ENDPOINT: thermal shift delta Tm (°C)
Report only the number, with the unit °C understood.

Field thermal shift delta Tm (LOC_OS01G67340-cb003), entry Nc1cc(C(F)(F)F)c(-c2cc(N3CCOCC3)nc(N3CCOCC3)n2)cn1 : 0.47

Record Cn1cc(-c2ccc3nnc(Sc4ccc5ncccc5c4)n3n2)cn1 has LOC_OS01G67340-cb003 thermal shift delta Tm equal to 0.43

// molecule Cc1ccc(NC(=O)c2ccc(CN3CC[C@H](N(C)C)C3)c(C(F)(F)F)c2)cc1Nc1nccc(-c2cncnc2)n1 , assay LOC_OS01G67340-cb003, thermal shift delta Tm value: 0.51

Simply: CNc1nc(Nc2cn(C(C)(C)C#N)nc2C)ncc1C(F)(F)F , LOC_OS01G67340-cb003, thermal shift delta Tm = 0.49

====

System: LOC_OS01G63280-cb003
TEST DETAILS: thermal shift delta Tm vs DMSO control; higher = stronger stabilization (binding)
EXPERIMENTAL CONDITIONS: 12.5 µM; protein concentration 2 µM
ENDPOINT: thermal shift delta Tm (°C)
Field format: number, assumed °C, no unit text.

Value of measured thermal shift delta Tm for the entry COc1cc(N2CCN(C)CC2)ccc1Nc1ncc2c(n1)N(C)c1ccccc1C(=O)N2 : 0.14

CCS(=O)(=O)Nc1ccc2c(c1)/C(=C(/Nc1ccc(CN3CCCCC3)cc1)c1ccccc1)C(=O)N2 [Hesperadin] yielded thermal shift delta Tm of 1.11

Entry Nc1ccc(C(=O)Nc2cccc(-c3nc(N4CCOCC4)c4oc5ncccc5c4n3)c2)cn1 — recorded thermal shift delta Tm = -0.04

The compound Cc1cc(Nc2nc(N[C@@H](C)c3ncc(F)cn3)ncc2Cl)[nH]n1 showed thermal shift delta Tm equal to 1.3

Please fill in: thermal shift delta Tm reported for COc1cc(OC)cc(-c2cc3cnc(N)nc3nc2NC(=O)NC(C)(C)C)c1 = 0.24

thermal shift delta Tm reported for this compound CNC(=O)c1cc(Oc2ccc3nc(N[C@@H]4CCCC[C@H]4O)sc3c2)ccn1 : 0.76

GET /value?item= Cc1cc(Nc2cc(N)ncn2)c(=O)n2c1C(=O)NC21CCCCC1 &field=thermal shift delta Tm returns -0.02

For CNC(=O)c1ccc(Nc2ncc(C(F)(F)F)c(NCc3nccnc3N(C)S(C)(=O)=O)n2)cc1 the compound record lists thermal shift delta Tm as 0.96

Entry CC(=O)Nc1cccc(-n2c(=O)n(C3CC3)c(=O)c3c(Nc4ccc(I)cc4F)n(C)c(=O)c(C)c32)c1 ; thermal shift delta Tm = 0.03
